test system: KM12 colon; assay: NCI-60 one-dose screen, 48 h (100 = growth as untreated, 0 = no growth, -100 = all killed); conditions: 10 µM unless noted
This is part of a sample that, as a whole, favours compounds with a hit. Of some 83,000 tested, about 20% had one in any assay.
Below, each entry is listed with its recorded growth.
Output spec: scalar in %, unitless text.

# molecule, observed
rows = [
    ("CCN(CC)CCCNc1nc(C)cc(Nc2ccc3nc(C)cc(N)c3c2)n1", 101),
    ("Cc1cnc(NC(=O)C(Cc2ccccc2)NC(=O)c2ccccc2)s1 (stereo unspecified)", 60.2),
    ("O=C(CN1CCN(c2cc3c(cc2F)c(=O)c(C(=O)O)cn3C2CC2)CC1)Nc1ccc(C(=O)/C=C/c2ccccc2)cc1", 25.3),
    ("COc1cc(CCn2nnc3c(NCCCCO)ncnc32)cc(OC)c1", 103),
    ("COc1ccc(/C=C/C(=O)c2cccc(B(O)O)c2)cc1O", 3.44),
    ("COC1=CC(c2ccc[nH]2)=N/C1=C\\c1[nH]c(C)c(C(=O)CCCCC(=O)Oc2ccc3c(c2)CCC2C3CC[C@]3(C)[C@@H](O)CC[C@@H]23)c1C (stereo partly specified)", 29.4),
    ("C/C1=C\\CCC2(C)OC2CC2CCC(C)(O)C(CC1)C2(C)C (stereo unspecified)", 108),
    ("CCN(Cc1ccccc1)c1ccc(SC#N)cc1", 41.3),
]

Ask: What growth value was documented for this molecule, "O=C(O)c1cn(C2CC2)c2cc(N3CCN(S(=O)(=O)c4ccc(Cl)c(Cl)c4)CC3)c(F)cc2c1=O" ?
Reply: 14.6

Ask: Given CCN1C(=O)/C(=c2\sc3n(c2=O)C2C(NN=3)N(CC)C(=S)N2CC)c2ccccc21 (stereo unspecified) , state its recorded growth.
Reply: 102

====

test system: SF-539 CNS; assay: NCI-60 one-dose screen, 48 h (100 = growth as untreated, 0 = no growth, -100 = all killed); details: 10 µM unless noted
About 83,000 compounds went through this panel and 20% of them were active in at least one assay; those are over-represented in the sample as a whole.
// boundary case: growth equal to 80% maps to No; strictly smaller maps to Yes

# compound, category
records = [
    ("Cc1ccc2c(c1)C(C)Cc1c(ncnc1-n1cnc3ccccc31)N2C (stereo not given)", "Yes"),
]

Ask: For this compound, is growth lower than 80%? "O=S(=O)(c1ccccc1)n1ccc(-c2ccc3c(c2)CCO3)n1"
Reply: No

Ask: Strictly below 80%: is that where growth of "COc1cc(C(=O)OCCCCCCCCCCC[P+](c2ccccc2)(c2ccccc2)c2ccccc2)ccc1O" sits?
Reply: Yes

Ask: I'd appreciate it if you could check whether CC1=NN2C(=NC3=C(CCC/C3=C\c3ccc(Cl)cc3)C2c2ccc(Cl)cc2)S1 (stereo not given) has growth smaller than 80%.
Reply: No

Ask: I'd appreciate it if you could check whether "COc1ccc(NC(=O)/N=c2\oc3c(OC)cccc3cc2-c2cc3ccccc3[nH]2)cc1" has growth smaller than 80%.
Reply: Yes

Ask: Given the entry "O=C1CCCCC=C1C[N+](=O)[O-]" , would its reported growth be below 80%?
Reply: No

Ask: # TODO verify growth < 80% strictly for this compound: CCC(c1ccc(OC)cc1)C(CC)c1ccc(O)c(CN2CCCC2)c1 (stereo not given)
Reply: Yes

Ask: Consider CC(=O)OCC1OC(OCC2OC(OC(C)=O)C(OC(C)=O)C(OC(C)=O)C2OC(C)=O)C(OC(C)=O)C(OC(C)=O)C1OC(C)=O (stereo not given) . Does its growth lie strictly below 80%?
Reply: No

Ask: # strict comparison: is reported growth < 80%? input = "CCOC(=O)c1cc(/C(=N\O)c2cc(OC)c(OC)c(OC)c2)n2c(C)cccc12"
Reply: Yes

====

system: SK-MEL-2 melanoma; test: NCI-60 one-dose screen, 48 h; conditions: 10 µM unless noted
This is part of a sample that, as a whole, favours compounds with a hit. Of some 83,000 tested, about 20% had one in any assay. The source made the active and inactive calls. How the source made its calls: active means growth percent below 10; inactive means the rest.
// allowed return values: active, inactive

Answered examples (5):
# smiles representation, category
rows = [
    ("ClC1=C(Cl)C(Cl)=C(Cl)C1=Cc1ccc(Cl)cc1Cl", "active"),
    ("O=C(/C=C/CN1CCCCC1)Nc1cc2c(Nc3ccc(F)c(Cl)c3F)ncnc2cc1OCCOC(F)F", "inactive"),
    ("Cc1ccc2c(c1)C(=O)C(c1c(-c3[nH]c(=O)c4ccc(C)cc4c3O)c(O)c3ccccc3c1O)=NC2=O", "inactive"),
    ("COc1ccc(-c2nc3sccn3c2-c2ccnc(NCCCNS(=O)(=O)c3ccc4ccccc4c3)n2)cc1", "inactive"),
    ("O=C1OC(c2ccccc2)=N/C1=C\\c1ccc([N+](=O)[O-])cc1", "inactive"),
]

Ask: Call for entry "Cc1cc(C)c(NC(=O)c2sc3nc4c(cc3c2N)CN(Cc2ccccc2)CC4)c(C)c1" :
Reply: inactive

Ask: Recorded test call requested for "COc1ccc(/C=N/NC(=O)Cn2c(Cc3cccc4ccccc34)nc3ccccc32)cc1"
Reply: inactive

Ask: Hi, do you know how "COc1ccc(-c2cn[nH]c2-c2cc(OC)c3c(c2)OCO3)cc1" came out in this test?
Reply: active

Ask: In this assay, the call recorded for "COc1cc(/C=C2\C=C(c3ccc(F)cc3)N(Cc3ccccc3)C2=O)cc(OC)c1OC" was what?
Reply: inactive

====

test system: A498 renal; test: NCI-60 one-dose screen, 48 h (100 = growth as untreated, 0 = no growth, -100 = all killed); details: 10 µM unless noted
This is part of a sample that, as a whole, favours compounds with a hit. Of some 83,000 tested, about 20% had one in any assay.
Record true (1) whenever growth is at 30% or higher; record false (0) when lower.

Please review the entries below; each comes with its answer.
# compound, category
data = [
    ("CCN1C(=O)/C(=c2\\sc3n(c2=O)C2C(NN=3)N(CC)C(=S)N2CC)c2ccccc21 (stereo not given)", "true (1)"),
    ("COc1ccc(/C=C/C(=O)c2cccc(B(O)O)c2)cc1O", "true (1)"),
    ("Cc1ccc2nc(SCn3nnc4ccccc4c3=O)[nH]c2c1", "true (1)"),
    ("O=c1[nH]c(-c2cn(-c3ccc(Cl)cc3)nn2)nc2ccccc12", "false (0)"),
    ("O=C(/C=C/CN1CCCCC1)Nc1cc2c(Nc3ccc(F)c(Cl)c3F)ncnc2cc1OCCOC(F)F", "false (0)"),
]

Ask: Hi, just wondering whether "O=C(/C=C/CN1CCOCC1)Nc1cc2c(Nc3cccc(Cl)c3F)ncnc2cc1OCCOC(F)F" shows growth of 30% or higher.
Reply: false (0)

Ask: Hello, I need to know if "O=C(O)c1cn(C2CC2)c2cc(N3CCN(S(=O)(=O)c4ccc(Cl)c(Cl)c4)CC3)c(F)cc2c1=O" has measured growth not below 30%. Thanks!
Reply: false (0)

Ask: Threshold query (growth >= 30%) on "COc1cc(-c2csc(NC(=O)c3cc(C(F)(F)F)cc(C(F)(F)F)c3)n2)cc(OC)c1OC"
Reply: false (0)

Ask: Please indicate if the recorded growth for "O=C(Nc1ccc(F)cc1)c1cc([N+](=O)[O-])ccc1O" meets or exceeds 30%.
Reply: false (0)

Ask: Textbook exercise: given the entry "O=c1[nH]c2ccccc2cc1-c1nnc(Cc2ccccc2)o1" , state whether its growth is greater than or equal to 30%.
Reply: true (1)

====

System: OVCAR-8 ovarian
Assay: NCI-60 one-dose screen, 48 h (100 = growth as untreated, 0 = no growth, -100 = all killed)
Conditions: 10 µM unless noted
Description: Growth inhibition of the OVCAR-8 human tumor cell line is measured as a screen for anti-cancer activity. Cells are grown in 96 well plates and exposed to the test compound for 48 hours. Compounds are tested at a single concentration, which is 10^-5 M for most compounds. The reported endpoint is percent growth (GI% or GIPRCNT), where numbers from 0 - 100% represent growth inhibition, and numbers from -100% - 0 represent cell death. For example, a value of 40 represents 60% growth inhibition. […]
This is part of a sample that, as a whole, favours compounds with a hit. Of some 83,000 tested, about 20% had one in any assay. Activity calls are given as the source filed them. The calls were made as follows: active = growth percent below 10; inactive = the rest.
reported property: growth

# compound, observed
rows = [
    ("COc1ccc(C(=O)/C=C/c2cc(C(=O)c3cc(OC)c(OC)c(OC)c3)ccc2OC)cc1", "43.8% (inactive)"),
    ("COc1ccc(C2=NN(c3ccc(S(N)(=O)=O)cc3)C(c3cn(-c4ccccc4)nc3-c3ccc(Cl)cc3)C2)cc1 (stereo not given)", "91.1% (inactive)"),
    ("COc1ccc(-c2nc3sccn3c2-c2ccnc(NCCCNS(=O)(=O)c3ccc4ccccc4c3)n2)cc1", "57.3% (inactive)"),
    ("Clc1nc2ccccc2nc1CI", "90.4% (inactive)"),
]

Ask: Form field: reported growth of "O=C(O)Cc1ccc2c(c1)Cc1cccnc1O2"
Reply: 103% (inactive)
